Data provenance: PubChem BioAssay AID1159506

Test: Identification of proteins required for the processing of the EWS-FLI1 nascent transcript;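 also: robust z of luciferase light less the median z of siRNAs with the same seed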
Conditions: TC32 Ewing sarcoma NR0B1-luc vs CMV-luc (EWS-FLI1 target promoter against control promoter), 48 h; screened at 20 nM (by protocol)
The full ranking holds about 59,000 sequences; the median of the read-out is about -0.00055, and the lowest 2% start at about -2. The sample as a whole holds a higher share of the lowest values than the screen did.
Reported seed-corrected z-score values are given for each entry in this list.
Please state the value as a number alone, without comment.

[[record]]
sequence_chain = "UUAAAGACUCGGUUCACUG against PLXNA3"
numeric_result = -1.44

[[record]]
sequence_chain = "UGAUGCACGAGAAGAAGCC against KCNK3"
numeric_result = -13.5


Q: Entry UGAUUGGAAAGCUUGUUCU against ME3 has what seed-corrected z-score?
Result: 0.0737
